Test system: EKVX NSCLC
Assay: NCI-60 one-dose screen, 48 h (100 = growth as untreated, 0 = no growth, -100 = all killed)
Details: 10 µM unless noted
This is part of a sample that, as a whole, favours compounds with a hit. Of some 83,000 tested, about 20% had one in any assay.
ASSAY ENDPOINT: growth (%)

MOLECULE: CCOC(=O)c1cnc2c(cnn2CC)c1NN=C(C)C
EXPERIMENTAL TARGET: EKVX NSCLC
VALUE UNIT: %
DATA VALUE: 93

MOLECULE: COc1cccc2cc(-c3cc4ccccc4[nH]3)/c(=N/C(=S)Nc3ccc(C)cc3)oc12
EXPERIMENTAL TARGET: EKVX NSCLC
VALUE UNIT: %
DATA VALUE: 60.9

MOLECULE: NC(=O)c1cccc(-n2ccc3cc(NC(=O)Nc4cc(C(F)(F)F)cc(C(F)(F)F)c4)ccc32)n1
EXPERIMENTAL TARGET: EKVX NSCLC
VALUE UNIT: %
DATA VALUE: 40.5

MOLECULE: COc1cc(-c2nc3occn3c2-c2ccnc(NCCNS(=O)(=O)c3ccc(Cl)cc3)n2)ccc1F
EXPERIMENTAL TARGET: EKVX NSCLC
VALUE UNIT: %
DATA VALUE: 78.1

MOLECULE: CCNC(=S)NNC(=O)c1cc2ccc1CCc1ccc(cc1)CC2
EXPERIMENTAL TARGET: EKVX NSCLC
VALUE UNIT: %
DATA VALUE: 94.4

MOLECULE: O=S(=O)(NCCNc1nccc(-c2c(-c3cccc(F)c3)nc3occn23)n1)c1cccc2ccccc12
EXPERIMENTAL TARGET: EKVX NSCLC
VALUE UNIT: %
DATA VALUE: 48.5

MOLECULE: O=C1Nc2ccccc2/C1=C\c1cccc(/C=C2/C(=O)Nc3ccccc32)n1
EXPERIMENTAL TARGET: EKVX NSCLC
VALUE UNIT: %
DATA VALUE: -37.9

MOLECULE: CN1C(=O)N(C)C2NC(N/N=C/c3ccccc3)=NC21 (centres undefined)
EXPERIMENTAL TARGET: EKVX NSCLC
VALUE UNIT: %
DATA VALUE: 98.7

MOLECULE: CNC(=O)NCC1OC(n2cnc3c(NC(=O)Nc4ccccc4)ncnc32)C(O[Si](C)(C)C(C)(C)C)C1O[Si](C)(C)C(C)(C)C (centres undefined)
EXPERIMENTAL TARGET: EKVX NSCLC
VALUE UNIT: %
DATA VALUE: 23.4

MOLECULE: C=CCn1c(SCC(=O)Nc2ccc(C(=O)/C=C/c3cc(OC)c(OC)c(OC)c3)cc2)nnc1-c1cc(OC)c(OC)c(OC)c1
EXPERIMENTAL TARGET: EKVX NSCLC
VALUE UNIT: %
DATA VALUE: 51.8

MOLECULE: COc1nc(N)nc(-n2c(-c3ccc(C)cc3)nc3ccccc32)c1NCc1ccc(C)cc1
EXPERIMENTAL TARGET: EKVX NSCLC
VALUE UNIT: %
DATA VALUE: 94.9

MOLECULE: Clc1cc(Cl)cc(N2N=C(c3cccc(Nc4ccncc4)c3)CC2c2ccccc2)c1 (centres undefined)
EXPERIMENTAL TARGET: EKVX NSCLC
VALUE UNIT: %
DATA VALUE: 87.6

MOLECULE: COc1ccc(/C=N/NC(=O)c2cccc3cc[nH]c23)cc1O
EXPERIMENTAL TARGET: EKVX NSCLC
VALUE UNIT: %
DATA VALUE: 32.1

MOLECULE: CN1CCN(c2cc(F)c(NC3=C(Cl)C(=O)c4ncccc4C3=O)c(F)c2)CC1
EXPERIMENTAL TARGET: EKVX NSCLC
VALUE UNIT: %
DATA VALUE: -82.7

MOLECULE: C(=C\c1n(Cc2ccc3ccccc3c2)c(-c2ccccc2)c(-c2ccccc2)[n+]1Cc1ccc2ccccc2c1)/c1ccccc1
EXPERIMENTAL TARGET: EKVX NSCLC
VALUE UNIT: %
DATA VALUE: -77.5

MOLECULE: O=C(Nc1nc(-c2ccccc2Cl)cs1)c1cc(-c2ccccc2)nc2ccc(Cl)cc12
EXPERIMENTAL TARGET: EKVX NSCLC
VALUE UNIT: %
DATA VALUE: 92.2

MOLECULE: C/C(=C(/c1ccccc1)c1ccc(OCC(O)CNCCN2CCOCC2)cc1)c1ccccc1 (centres undefined)
EXPERIMENTAL TARGET: EKVX NSCLC
VALUE UNIT: %
DATA VALUE: 82.8

MOLECULE: COc1ccc(Cn2nc(-c3ccccc3)c3c2CCc2cnoc2-3)cc1
EXPERIMENTAL TARGET: EKVX NSCLC
VALUE UNIT: %
DATA VALUE: 65.9

MOLECULE: COc1cccc(NC(=O)c2cccc(-c3cc(=O)c4c(OC)c(OC)c(OC)cc4o3)c2)c1
EXPERIMENTAL TARGET: EKVX NSCLC
VALUE UNIT: %
DATA VALUE: 81.3
